Data provenance: the supplement of paper PMC12042874

# TEST NAME: amyloid nucleation score (Sup35N fusion, yeast selection) (log enrichment); library NNK3; higher = more nucleation; inactive = no reads after selection;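 further: zero at mode of non-aggregating sequences after 7 days selection at 30°C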
MEASUREMENT KIND: amyloid nucleation score

{"SUBSTANCE": "VDISFVSAWKDLLLGRLVCD", "MEAS VALUE": "inactive"}
{"SUBSTANCE": "SETCWVIIYWYIGVKMFSRF", "MEAS VALUE": "inactive"}
{"SUBSTANCE": "CKDSDSTIPRMLLLRLKTEL", "MEAS VALUE": "inactive"}
{"SUBSTANCE": "ILYNFEDVLWAGSLRIGLNL", "MEAS VALUE": "inactive"}
{"SUBSTANCE": "IIVRSTDGLSCRSDSIYECD", "MEAS VALUE": "inactive"}
{"SUBSTANCE": "VEEGFGLMSKIAHSIGLREC", "MEAS VALUE": -0.278}
{"SUBSTANCE": "YIEAMNAGLPGEPARYFVVS", "MEAS VALUE": "inactive"}
{"SUBSTANCE": "YIISRFYMAVWGDKPLYTGL", "MEAS VALUE": "inactive"}
{"SUBSTANCE": "ILQTLQDVRVRGMDISTASL", "MEAS VALUE": "inactive"}
{"SUBSTANCE": "TFFVLGCLINLLGMKWTGWV", "MEAS VALUE": "inactive"}
{"SUBSTANCE": "SVLFSLYSSLSYV", "MEAS VALUE": 0.548}
{"SUBSTANCE": "YFVFKALRSIPNGLMLSLRG", "MEAS VALUE": "inactive"}
{"SUBSTANCE": "IGIIFSKVWSPPDDMHT", "MEAS VALUE": 1.28}
{"SUBSTANCE": "WIVVDKSNQCGLGYVLWYNF", "MEAS VALUE": "inactive"}
{"SUBSTANCE": "GSGCVIYIL", "MEAS VALUE": "inactive"}
{"SUBSTANCE": "IRNFPRDLEFLPFWHSILSL", "MEAS VALUE": "inactive"}
{"SUBSTANCE": "LVYNTDQSTRYAMTDYDADL", "MEAS VALUE": "inactive"}
{"SUBSTANCE": "CNVASSNFRCHYSQMRRFCE", "MEAS VALUE": "inactive"}
{"SUBSTANCE": "IDRVMCNHDSIRQQLSLLSV", "MEAS VALUE": "inactive"}
{"SUBSTANCE": "DSGLFKYSYGLWEKLLFYRM", "MEAS VALUE": "inactive"}
{"SUBSTANCE": "AVNYMYSQSMKIVRDCFVIV", "MEAS VALUE": "inactive"}
{"SUBSTANCE": "LWEVRSEPDPDSSNKLLSRE", "MEAS VALUE": 0.136}
{"SUBSTANCE": "SKESCRCLSWCGPEPRSCIA", "MEAS VALUE": "inactive"}
{"SUBSTANCE": "SDDRIT", "MEAS VALUE": "inactive"}
{"SUBSTANCE": "RLIWVDLALMFMFMYFLVRQ", "MEAS VALUE": "inactive"}
{"SUBSTANCE": "MWGVCSFFAFPHIIFM", "MEAS VALUE": 1.33}
{"SUBSTANCE": "RLCNHKILDPACVLTSQVPI", "MEAS VALUE": "inactive"}
{"SUBSTANCE": "VVSSFMMLVYMNLLNFSNVE", "MEAS VALUE": "inactive"}
{"SUBSTANCE": "LFRTDFMQTLLCHTIQLLYP", "MEAS VALUE": "inactive"}
{"SUBSTANCE": "RCNALSLWIYNEKSWNNTWY", "MEAS VALUE": 1.74}
{"SUBSTANCE": "NRQSLGIRSYFC", "MEAS VALUE": "inactive"}
{"SUBSTANCE": "CDIISMALEPQVCTEYDLQR", "MEAS VALUE": 1.38}
{"SUBSTANCE": "NNVVHEVNFLELRLRVILGY", "MEAS VALUE": "inactive"}
{"SUBSTANCE": "LMLILCY", "MEAS VALUE": "inactive"}
{"SUBSTANCE": "SHAEVCQLSTSGPL", "MEAS VALUE": "inactive"}
